Tested target: Sodium-dependent dopamine transporter (Homo sapiens) (UniProt Q01959)
Sequence (Q01959 whole entry): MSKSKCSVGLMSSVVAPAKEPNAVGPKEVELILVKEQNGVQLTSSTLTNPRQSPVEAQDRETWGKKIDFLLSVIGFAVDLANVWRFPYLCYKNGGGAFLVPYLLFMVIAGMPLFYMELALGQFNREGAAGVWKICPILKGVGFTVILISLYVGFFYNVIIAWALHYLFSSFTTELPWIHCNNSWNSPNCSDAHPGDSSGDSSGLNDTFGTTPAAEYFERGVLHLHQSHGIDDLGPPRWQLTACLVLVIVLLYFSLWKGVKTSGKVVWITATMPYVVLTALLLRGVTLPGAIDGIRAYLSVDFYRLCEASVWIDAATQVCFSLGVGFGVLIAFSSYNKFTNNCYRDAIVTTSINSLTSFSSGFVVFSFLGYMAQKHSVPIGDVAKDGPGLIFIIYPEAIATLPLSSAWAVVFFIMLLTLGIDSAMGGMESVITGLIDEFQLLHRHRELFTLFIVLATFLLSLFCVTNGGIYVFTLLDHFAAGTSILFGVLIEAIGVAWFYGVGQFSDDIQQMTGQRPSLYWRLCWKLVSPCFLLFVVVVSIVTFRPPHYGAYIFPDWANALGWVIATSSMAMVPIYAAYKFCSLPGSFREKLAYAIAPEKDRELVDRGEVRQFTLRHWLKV
Procedure text: SafetyScreen: DAT Human Dopamine Transporter Binding Antagonist Radioligand LeadHunter Assay, catalogue number: 52
Conditions used: Test compound concentration 10.0 uM
Reported values of inhibition for individual entries
Quick reminder: number only, in %, skip the unit.

Look up and report measured inhibition for this entry: `COc1ccc([C@H](Cc2nnn[nH]2)NC(=O)c2ncnc3[nH]ccc23)cc1`
7

Look up and report measured inhibition for this entry: `CNCc1cc(-c2cc3c(N[C@@H](c4ccc5c(c4)S(=O)(=O)CCC5)C(C)C)ncnc3[nH]2)co1`
50

Look up and report measured inhibition for this entry: `CNC(=O)Cn1cc(-c2cc3c(N[C@@H](c4ccc5c(c4)S(=O)(=O)CCC5)C(C)C)ncnc3[nH]2)cn1`
1

---

Tested target: Alpha-2A adrenergic receptor (Homo sapiens) (UniProt P08913)
Sequence (P08913 whole entry): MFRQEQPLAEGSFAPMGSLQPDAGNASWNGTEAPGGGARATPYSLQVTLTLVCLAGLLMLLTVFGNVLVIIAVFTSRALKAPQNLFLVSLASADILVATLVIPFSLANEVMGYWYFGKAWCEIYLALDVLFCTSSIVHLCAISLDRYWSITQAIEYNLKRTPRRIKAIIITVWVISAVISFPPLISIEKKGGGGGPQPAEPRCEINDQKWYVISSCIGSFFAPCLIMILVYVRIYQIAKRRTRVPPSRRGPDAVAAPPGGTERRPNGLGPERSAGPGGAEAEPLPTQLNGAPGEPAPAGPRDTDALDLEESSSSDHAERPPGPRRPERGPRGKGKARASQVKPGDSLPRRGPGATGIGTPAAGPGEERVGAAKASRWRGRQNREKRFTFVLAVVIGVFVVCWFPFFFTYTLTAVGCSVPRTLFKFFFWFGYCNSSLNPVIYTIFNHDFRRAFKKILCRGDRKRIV
Procedure text: SafetyScreen: alpha2A Human Adrenoceptor GPCR Binding Antagonist Radioligand LeadHunter Assay, catalogue number: 13
Conditions used: Test compound concentration 10.0 uM
Reported values of inhibition for individual entries
Quick reminder: number only, in %, skip the unit.

The cases that follow already have their inhibition on record.
Answer with inhibition of `CC(C)[C@@H](Nc1ncnc2[nH]c(-c3cnn(C)c3C#N)cc12)c1ccc2c(n1)OCCO2` measured for Alpha-2A adrenergic receptor (Homo sapiens) (UniProt P08913).
9

Answer with inhibition of `COc1ccc([C@H](Cc2nnn[nH]2)NC(=O)c2ncnc3[nH]ccc23)cc1` measured for Alpha-2A adrenergic receptor (Homo sapiens) (UniProt P08913).
-1

Answer with inhibition of `CNC(=O)Cn1cc(-c2cc3c(N[C@@H](c4ccc5c(c4)S(=O)(=O)CCC5)C(C)C)ncnc3[nH]2)cn1` measured for Alpha-2A adrenergic receptor (Homo sapiens) (UniProt P08913).
4

Answer with inhibition of `CC(C)[C@H](Nc1ncnc2[nH]ccc12)c1ccc2c(c1)S(=O)(=O)CCC2` measured for Alpha-2A adrenergic receptor (Homo sapiens) (UniProt P08913).
10

Answer with inhibition of `Cc1nn(C)cc1-c1cc2c(N[C@H](c3ccc4c(c3)S(=O)(=O)CCC4)C(C)C)ncnc2[nH]1` measured for Alpha-2A adrenergic receptor (Homo sapiens) (UniProt P08913).
5

Next up:
Answer with inhibition of `CC(C)[C@@H](Nc1ncnc2[nH]c(C(=O)N[C@@H]3CCN(C)C3)cc12)c1ccc2c(c1)S(=O)(=O)CCC2` measured for Alpha-2A adrenergic receptor (Homo sapiens) (UniProt P08913).
6

---

Tested target: D(1A) dopamine receptor (Homo sapiens) (UniProt P21728)
Sequence (P21728 whole entry): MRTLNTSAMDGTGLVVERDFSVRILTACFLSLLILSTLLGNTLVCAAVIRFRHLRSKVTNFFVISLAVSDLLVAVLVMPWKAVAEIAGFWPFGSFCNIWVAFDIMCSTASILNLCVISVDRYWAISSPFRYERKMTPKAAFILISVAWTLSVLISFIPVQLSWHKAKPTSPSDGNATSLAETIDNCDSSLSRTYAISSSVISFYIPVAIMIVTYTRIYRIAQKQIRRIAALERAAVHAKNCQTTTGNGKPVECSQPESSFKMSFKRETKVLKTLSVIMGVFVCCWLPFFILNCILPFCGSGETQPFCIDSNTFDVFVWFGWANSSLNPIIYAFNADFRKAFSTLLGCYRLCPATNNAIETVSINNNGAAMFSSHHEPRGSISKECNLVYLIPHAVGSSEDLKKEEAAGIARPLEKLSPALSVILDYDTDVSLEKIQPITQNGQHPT
Procedure text: SafetyScreen: D1 Human Dopamine GPCR Binding Antagonist Radioligand LeadHunter Assay, catalogue number: 44
Conditions used: Test compound concentration 10.0 uM
Value kind: inhibition (%)
Quick reminder: number only, in %, skip the unit.

The cases that follow already have their inhibition on record.
Look up and report measured inhibition for this entry: `Cc1nn(C)cc1-c1cc2c(N[C@H](c3ccc4c(c3)S(=O)(=O)CCC4)C(C)C)ncnc2[nH]1`
3

Look up and report measured inhibition for this entry: `CC(C)[C@@H](Nc1ncnc2[nH]c(C(=O)N[C@@H]3CCN(C)C3)cc12)c1ccc2c(c1)S(=O)(=O)CCC2`
-3

Look up and report measured inhibition for this entry: `Cn1ncc(-c2cc3c(N[C@@H](c4ccc5c(n4)OCCO5)C(C)(C)C)ncnc3[nH]2)c1C#N`
9

Next up:
Look up and report measured inhibition for this entry: `CC(C)[C@@H](Nc1ncnc2[nH]c(-c3cnn(C)c3C#N)cc12)c1ccc2c(n1)OCCO2`
10

Source: ChEMBL document CHEMBL5442334
